Test system: IL-17A
Test: IL-17 release from differentiated primary human T-cells (IL-17A HTRF assay)
Assay type: cell-based
Conditions: primary human CD4+ T cells differentiated into Th17 cells, 45-hour incubation, IL-17A in supernatant; read-out: hIL17 IC50
Friendly reminder: IC50 below 40 nM is 1.0, at or above is 0.0.

>  <MOLECULE>
C[C@H]1C(=O)C(C#N)=C[C@@]2(C)c3nc(-c4ccc(C5CC5)nc4)n(-c4cccc(F)c4)c3CC[C@H]12 [T142]

>  <ASSIGNED CATEGORY>
0.0

$$$$

Just wondering, is IC50 of C[C@H]1C(=O)C(C#N)=C[C@@]2(C)c3c(c(-c4ccccn4)nn3-c3ccc(-c4ccccc4)cc3)CC[C@H]12 [T81] below 40 nM? 1.0

Just wondering, is IC50 of C[C@H]1C(=O)C(C#N)=C[C@@]2(C)c3nn(-c4cccc(-c5ccccc5)c4)c(-c4ccncn4)c3CC[C@H]12 [T121] below 40 nM? 0.0

Just wondering, is IC50 of CC(C)c1ccc(-c2nc3c(n2Cc2ccccc2F)CC[C@@H]2[C@@H](C)C(=O)C(C#N)=C[C@@]32C)cc1 [T168] below 40 nM? 0.0

Just wondering, is IC50 of C[C@H]1C(=O)C(C#N)=C[C@@]2(C)c3nn(-c4ccc(-c5ccccc5)cc4)c(-c4ccccc4F)c3CC[C@H]12 [T123] below 40 nM? 0.0

Just wondering, is IC50 of C[C@H]1C(=O)C(C#N)=C[C@@]2(C)c3c(c(-c4ccncn4)nn3-c3ccc(-c4ccnc(CF)c4)cc3)CC[C@H]12 [T54] below 40 nM? 1.0

====

System: IL-17A
Assay: IL-17 release from differentiated primary human T-cells (IL-17A HTRF assay)
Format: cell-based
Conditions: primary human CD4+ T cells differentiated into Th17 cells, 45-hour incubation, IL-17A in supernatant; read-out: hIL17 IC50
# reported log10 of IC50; entries follow
Scale: log10; quantity: IC50; unit before log: nM

>  <INPUT SMILES>
CC(C)c1ccc(-n2nc(-c3ccccc3)c3c2[C@]2(C)C=C(C#N)C(=O)[C@H](C)[C@H]2CC3)cc1

>  <MEASURED TARGET>
IL-17A

>  <log10 of IC50>
1.45

$$$$
>  <INPUT SMILES>
Cc1ccc(-c2nn(-c3ccc(-c4ccccc4)cc3)c3c2CC[C@@H]2[C@@H](C)C(=O)C(C#N)=C[C@@]32C)cc1

>  <MEASURED TARGET>
IL-17A

>  <log10 of IC50>
1.08

$$$$
>  <INPUT SMILES>
C[C@H]1C(=O)C(C#N)=C[C@@]2(C)c3c(c(-c4ccccc4F)nn3-c3ccc(-c4ccncn4)cc3)CC[C@H]12

>  <MEASURED TARGET>
IL-17A

>  <log10 of IC50>
1.57

$$$$
>  <INPUT SMILES>
C[C@H]1C(=O)C(C#N)=C[C@@]2(C)c3nn(-c4ccc(Cl)cc4)c(-c4ccccc4)c3CC[C@H]12

>  <MEASURED TARGET>
IL-17A

>  <log10 of IC50>
2.71

$$$$
>  <INPUT SMILES>
C[C@H]1C(=O)C(C#N)=C[C@@]2(C)c3c(c(-c4ccncn4)nn3-c3ccc(-c4ccnc(CO)c4)cc3)CC[C@H]12

>  <MEASURED TARGET>
IL-17A

>  <log10 of IC50>
2.17

$$$$

Quick one: log10 of IC50 for `Cc1nc2c(n1-c1cccc(F)c1)CC[C@@H]1[C@@H](C)C(=O)C(C#N)=C[C@@]21C` ? 2.39

Quick one: log10 of IC50 for `C[C@H]1C(=O)C(C#N)=C[C@@]2(C)c3c(c(-c4ccccc4)nn3-c3ccccc3F)CC[C@H]12` ? 2.10

====

# reported IC50; entries follow
Test system: IL-17A
Assay: IL-17 release from differentiated primary human T-cells (IL-17A HTRF assay)
Format: cell-based
Details: primary human CD4+ T cells differentiated into Th17 cells, 45-hour incubation, IL-17A in supernatant; read-out: hIL17 IC50
Write the number in nM without appending the unit.

Example entries and their recorded answers appear below.
>  <COMPOUND>
Cc1cc(-c2ccc(-n3nc(-c4ccccc4F)c4c3[C@]3(C)C=C(C#N)C(=O)[C@H](C)[C@H]3CC4)cc2)cnn1 [T83]

>  <IC50, nM>
20

$$$$
>  <COMPOUND>
C[C@H]1C(=O)C(C#N)=C[C@@]2(C)c3nc(-c4ccc(Cl)c(Cl)c4)n(-c4cnn(C)c4)c3CC[C@H]12 [T158]

>  <IC50, nM>
240

$$$$
>  <COMPOUND>
CC(C)c1ccc(-c2nc3c(n2Cc2ccccc2)CC[C@@H]2[C@@H](C)C(=O)C(C#N)=C[C@@]32C)cc1 [T166]

>  <IC50, nM>
63

$$$$
>  <COMPOUND>
Cc1cc(-c2ccc(-n3nc(-c4cccnc4)c4c3[C@]3(C)C=C(C#N)C(=O)[C@H](C)[C@H]3CC4)cc2)cnn1 [T102]

>  <IC50, nM>
56

$$$$
>  <COMPOUND>
C[C@H]1C(=O)C(C#N)=C[C@@]2(C)c3c(c(-c4cccc(F)c4)nn3-c3ccnc4ccccc34)CC[C@H]12 [T104]

>  <IC50, nM>
62

$$$$

Quick one: IC50 for C[C@H]1C(=O)C(C#N)=C[C@@]2(C)c3c(c(-c4ccncn4)nn3-c3ccc(-c4ccccc4)cn3)CC[C@H]12 [T59] ? 99

Quick one: IC50 for COCCn1c(-c2ccc(C(C)C)cc2)nc2c1CC[C@@H]1[C@@H](C)C(=O)C(C#N)=C[C@@]21C [T164] ? 158

Quick one: IC50 for C[C@H]1C(=O)C(C#N)=C[C@@]2(C)c3c(c(-c4ccccc4)nn3-c3ccccc3)CC[C@H]12 [T11] ? 111

Quick one: IC50 for COc1ccc(-n2nc(-c3ccccc3)c3c2[C@]2(C)C=C(C#N)C(=O)[C@H](C)[C@H]2CC3)cc1 [T14] ? 57

====

Molecular target: UniProt:P51449
Sequence (P51449 269-508 limits assumed): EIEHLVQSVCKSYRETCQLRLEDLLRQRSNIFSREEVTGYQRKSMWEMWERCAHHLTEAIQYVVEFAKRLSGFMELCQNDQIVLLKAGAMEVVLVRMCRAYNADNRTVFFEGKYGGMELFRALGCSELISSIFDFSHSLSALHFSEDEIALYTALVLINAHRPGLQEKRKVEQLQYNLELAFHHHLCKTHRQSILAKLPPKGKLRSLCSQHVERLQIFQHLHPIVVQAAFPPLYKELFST
Experiment: RORγ assay (GAL4-RORγ hybrid luciferase reporter, Indigo Biosciences)
Conditions: inverse-agonist activity, GAL4-RORγ reporter cells, 23 hours
Procedure: B. RORγ Assay and Cell Viability The RORγ assay system was purchased from Indigo Biosciences. […] The GAL4-RORγ hybrid is constitutively active; therefore, the principle application of this reporter assay system is to screen test compounds to quantify inverse-agonist activities against human RORγ. […] After this incubation, luciferin was added to the wells and luciferase activity was determined by measuring the luminescence signal using a BMG Pherastar microplate reader. […]
# reported IC50; entries follow
Write the number in nM without appending the unit.

>  <MOLECULE>
COCCn1c(-c2ccc(C(C)C)cc2)nc2c1CC[C@@H]1[C@@H](C)C(=O)C(C#N)=C[C@@]21C [T164]

>  <MEASURED TARGET>
UniProt:P51449

>  <U>
nM

>  <MEAS VALUE>
237

$$$$
>  <MOLECULE>
Cc1ccc(-c2ccc(-n3nc(-c4ccccc4)c4c3[C@]3(C)C=C(C#N)C(=O)[C@H](C)[C@H]3CC4)cc2)cc1 [T41]

>  <MEASURED TARGET>
UniProt:P51449

>  <U>
nM

>  <MEAS VALUE>
83

$$$$

Entry C[C@H]1C(=O)C(C#N)=C[C@@]2(C)c3c(c(-c4ccncn4)nn3-c3ccc(-c4ccnc(CF)c4)cc3)CC[C@H]12 [T54] , system UniProt:P51449: what IC50 was measured? 52

Entry C[C@H]1C(=O)C(C#N)=C[C@@]2(C)c3c(c(-c4ccccc4)nn3C3CCOCC3)CC[C@H]12 [T27] , system UniProt:P51449: what IC50 was measured? 132

Entry C[C@H]1C(=O)C(C#N)=C[C@@]2(C)c3c(c(-c4ccccc4)nn3-c3cccc4ccccc34)CC[C@H]12 [T23] , system UniProt:P51449: what IC50 was measured? 118

Entry C[C@H]1C(=O)C(C#N)=C[C@@]2(C)c3c(c(-c4ccccc4)nn3-c3ccc(-c4ccccc4)cc3)CC[C@H]12 [T21] , system UniProt:P51449: what IC50 was measured? 80

Entry C[C@H]1C(=O)C(C#N)=C[C@@]2(C)c3nn(-c4cccc5ccccc45)c(-c4ccccc4)c3CC[C@H]12 [T24] , system UniProt:P51449: what IC50 was measured? 284

====

Target: UniProt:P51449
Test: RORγ assay (GAL4-RORγ hybrid luciferase reporter, Indigo Biosciences)
Details: inverse-agonist activity, GAL4-RORγ reporter cells, 23 hours
EXPERIMENTAL ENDPOINT: pIC50
# pIC50 is unitless: minus log10 of the molar concentration; print number only

Example entries and their recorded answers appear below.
>  <INPUT SMILES>
C[C@H]1C(=O)C(C#N)=C[C@@]2(C)c3nn(-c4ccccc4)c(-c4ccccc4)c3CC[C@H]12

>  <EXPERIMENTAL ENDPOINT>
pIC50

>  <MEAS VALUE>
7.11

$$$$
>  <INPUT SMILES>
Cc1nc(-c2ccc(-n3nc(-c4ccc(F)cc4)c4c3[C@]3(C)C=C(C#N)C(=O)[C@H](C)[C@H]3CC4)cc2)no1

>  <EXPERIMENTAL ENDPOINT>
pIC50

>  <MEAS VALUE>
7.02

$$$$
>  <INPUT SMILES>
COc1ccc(-n2nc(-c3ccccc3)c3c2[C@]2(C)C=C(C#N)C(=O)[C@H](C)[C@H]2CC3)cc1

>  <EXPERIMENTAL ENDPOINT>
pIC50

>  <MEAS VALUE>
7.22

$$$$

Entry `C[C@H]1C(=O)C(C#N)=C[C@@]2(C)c3c(c(-c4ccccc4)nn3-c3ccc(-c4cccnc4)cc3)CC[C@H]12` , system UniProt:P51449: what pIC50 was measured? 7.49
